test system: A-375; assay: Cytotoxicity against human A375 cells after 72 hrs by MTT assay; format: functional, cell-based; conditions: A-375, 72 h
The label Fulfilled is reserved for IC50 strictly under 7 µM; Not fulfilled covers values equal to or above it.

Use these answered entries as a reference point.
COMPOUND	CLASS_NAME
C=C(C)[C@@H]1CC[C@]2(C(=O)OCCN3CCN(C(=O)c4cccc(F)c4)CC3)CC[C@]3(C)[C@H](CC[C@@H]4[C@@]5(C)CCC(=O)C(C)(C)[C@@H]5CC[C@]43C)[C@@H]12	Not fulfilled
CC[C@@]1(O)C(=O)OCc2c1cc1n(c2=O)Cc2cc3cc(O)ccc3nc2-1 [HYDROXYCAMPTOTHECIN]	Not fulfilled

For this compound, is IC50 lower than 7 µM? `C=C(C)[C@@H]1CC[C@]2(C(=O)OCCN3CCN(C(=O)c4ccccc4)CC3)CC[C@]3(C)[C@H](CC[C@@H]4[C@@]5(C)CCC(=O)C(C)(C)[C@@H]5CC[C@]43C)[C@@H]12`
Fulfilled

For this compound, is IC50 lower than 7 µM? `C=C(C)[C@@H]1CC[C@]2(C(=O)OCCCCBr)CC[C@]3(C)[C@H](CC[C@@H]4[C@@]5(C)CCC(=O)C(C)(C)[C@@H]5CC[C@]43C)[C@@H]12`
Not fulfilled

For this compound, is IC50 lower than 7 µM? `C=C(C)[C@@H]1CC[C@]2(C(=O)OCCN3CCN(C(=O)c4ccccc4C)CC3)CC[C@]3(C)[C@H](CC[C@@H]4[C@@]5(C)CCC(=O)C(C)(C)[C@@H]5CC[C@]43C)[C@@H]12`
Fulfilled
